Values compiled from paper PMC8612936.

# Procedure summary: VIS: M5717 whole-blood pharmacokinetics
# Assay type: in vivo
# Details: human, po, 400 mg
Measured attribute: half-life (h)

[[record]]
compound_structure = "O=C(NCCN1CCCC1)c1cc(-c2ccc(CN3CCOCC3)cc2)nc2ccc(F)cc12"
quantity_unit = "h"
recorded_value = 146


----------
# Procedure summary: SAD: M5717 whole-blood pharmacokinetics
# Assay type: in vivo, human
# Details: human, whole blood, po, 400 mg
Measured attribute: Vd/F (L)

[[record]]
compound_structure = "O=C(NCCN1CCCC1)c1cc(-c2ccc(CN3CCOCC3)cc2)nc2ccc(F)cc12"
recorded_value = 7100


----------
# Procedure summary: VIS: M5717 whole-blood pharmacokinetics
# Assay type: in vivo
# Details: human, po, 150 mg
Measured attribute: half-life (h)

[[record]]
molecule = "O=C(NCCN1CCCC1)c1cc(-c2ccc(CN3CCOCC3)cc2)nc2ccc(F)cc12 [M5717]"
recorded_value = 106


----------
# Procedure summary: SAD: M5717 whole-blood pharmacokinetics
# Format: in vivo, human
# Details: human, whole blood, oral
Measured attribute: half-life

[[record]]
compound_structure = "O=C(NCCN1CCCC1)c1cc(-c2ccc(CN3CCOCC3)cc2)nc2ccc(F)cc12"
recorded_value = "106 to 193 h"


----------
# Procedure summary: SAD: M5717 whole-blood pharmacokinetics
# Assay type: in vivo, human
# Details: human, whole blood, po, 2100 mg
Measured attribute: AUC(0-inf) (ng·h/mL)

[[record]]
compound_structure = "O=C(NCCN1CCCC1)c1cc(-c2ccc(CN3CCOCC3)cc2)nc2ccc(F)cc12"
recorded_value = 43000


----------
# Procedure summary: SAD: M5717 whole-blood pharmacokinetics
# Format: in vivo, human
# Details: human, whole blood, po, 1800 mg
Measured attribute: Vd/F (L)

[[record]]
compound = "O=C(NCCN1CCCC1)c1cc(-c2ccc(CN3CCOCC3)cc2)nc2ccc(F)cc12 [M5717]"
quantity_unit = "L"
recorded_value = 7060


----------
# Procedure summary: VIS: M5717 whole-blood pharmacokinetics
# Type: in vivo
# Details: human, po, 800 mg
Measured attribute: half-life

[[record]]
compound_structure = "O=C(NCCN1CCCC1)c1cc(-c2ccc(CN3CCOCC3)cc2)nc2ccc(F)cc12"
recorded_value = "193 h"


----------
# Procedure summary: SAD: M5717 whole-blood pharmacokinetics
# Format: in vivo, human
# Details: human, whole blood, oral
Measured attribute: Vd/F

[[record]]
compound_structure = "O=C(NCCN1CCCC1)c1cc(-c2ccc(CN3CCOCC3)cc2)nc2ccc(F)cc12"
measured_attribute = "Vd/F"
recorded_value = "5880 to 9510 L"


----------
# Procedure summary: SAD: M5717 whole-blood pharmacokinetics
# Format: in vivo, human
# Details: human, whole blood, po, 2100 mg
Measured attribute: Vd/F (L)

[[record]]
compound_structure = "O=C(NCCN1CCCC1)c1cc(-c2ccc(CN3CCOCC3)cc2)nc2ccc(F)cc12"
recorded_value = 7870


----------
# Procedure summary: SAD: M5717 whole-blood pharmacokinetics
# Type: in vivo, human
# Details: human, whole blood, po, 200 mg
Measured attribute: half-life

[[record]]
compound_structure = "O=C(NCCN1CCCC1)c1cc(-c2ccc(CN3CCOCC3)cc2)nc2ccc(F)cc12"
measured_attribute = "half-life"
recorded_value = "145 h"


----------
# Procedure summary: SAD: M5717 whole-blood pharmacokinetics
# Format: in vivo, human
# Details: human, whole blood, po, 50 mg
Measured attribute: half-life (h)

[[record]]
compound_structure = "O=C(NCCN1CCCC1)c1cc(-c2ccc(CN3CCOCC3)cc2)nc2ccc(F)cc12"
recorded_value = 133


----------
# Procedure summary: SAD: M5717 whole-blood pharmacokinetics
# Type: in vivo, human
# Details: human, whole blood, po, 2100 mg, AUC0–t, SAD 2100 mg oral; N=1
Measured attribute: AUC(0-t) (ng·h/mL)

[[record]]
compound_structure = "O=C(NCCN1CCCC1)c1cc(-c2ccc(CN3CCOCC3)cc2)nc2ccc(F)cc12"
quantity_unit = "ng·h/mL"
recorded_value = 42200


----------
# Procedure summary: SAD: M5717 whole-blood pharmacokinetics
# Assay type: in vivo, human
# Details: human, whole blood, po, 1000 mg
Measured attribute: Vd/F

[[record]]
compound_structure = "O=C(NCCN1CCCC1)c1cc(-c2ccc(CN3CCOCC3)cc2)nc2ccc(F)cc12"
recorded_value = "6770 L"


----------
# Procedure summary: SAD: M5717 whole-blood pharmacokinetics
# Format: in vivo, human
# Details: human, whole blood, po, 1250 mg
Measured attribute: half-life (h)

[[record]]
compound = "O=C(NCCN1CCCC1)c1cc(-c2ccc(CN3CCOCC3)cc2)nc2ccc(F)cc12 [M5717]"
recorded_value = 180


----------
# Procedure summary: SAD: M5717 whole-blood pharmacokinetics
# Type: in vivo, human
# Details: human, whole blood, po, 100 mg
Measured attribute: Vd/F

[[record]]
compound = "O=C(NCCN1CCCC1)c1cc(-c2ccc(CN3CCOCC3)cc2)nc2ccc(F)cc12 [M5717]"
measured_attribute = "Vd/F"
recorded_value = "8890 L"


----------
# Procedure summary: SAD: M5717 whole-blood pharmacokinetics
# Format: in vivo, human
# Details: human, whole blood, po, 1800 mg
Measured attribute: half-life (h)

[[record]]
compound_structure = "O=C(NCCN1CCCC1)c1cc(-c2ccc(CN3CCOCC3)cc2)nc2ccc(F)cc12"
measured_attribute = "half-life"
recorded_value = 181


----------
# Procedure summary: VIS: M5717 whole-blood pharmacokinetics
# Assay type: in vivo
# Details: human, po, 800 mg
Measured attribute: Vd/F (L)

[[record]]
compound_structure = "O=C(NCCN1CCCC1)c1cc(-c2ccc(CN3CCOCC3)cc2)nc2ccc(F)cc12"
measured_attribute = "Vd/F"
recorded_value = 8890


----------
# Procedure summary: SAD: M5717 whole-blood pharmacokinetics
# Assay type: in vivo, human
# Details: human, whole blood, po, 200 mg
Measured attribute: Vd/F (L)

[[record]]
molecule = "O=C(NCCN1CCCC1)c1cc(-c2ccc(CN3CCOCC3)cc2)nc2ccc(F)cc12 [M5717]"
measured_attribute = "Vd/F"
recorded_value = 9510


----------
# Procedure summary: SAD: M5717 whole-blood pharmacokinetics
# Format: in vivo, human
# Details: human, whole blood, po, 100 mg
Measured attribute: half-life (h)

[[record]]
compound_structure = "O=C(NCCN1CCCC1)c1cc(-c2ccc(CN3CCOCC3)cc2)nc2ccc(F)cc12"
measured_attribute = "half-life"
quantity_unit = "h"
recorded_value = 133


----------
# Procedure summary: SAD: M5717 whole-blood pharmacokinetics
# Assay type: in vivo, human
# Details: human, whole blood, po, 50 mg
Measured attribute: AUC(0-inf) (ng·h/mL)

[[record]]
compound_structure = "O=C(NCCN1CCCC1)c1cc(-c2ccc(CN3CCOCC3)cc2)nc2ccc(F)cc12"
recorded_value = 997


----------
# Procedure summary: SAD: M5717 whole-blood pharmacokinetics
# Format: in vivo, human
# Details: human, whole blood, po, 2100 mg
Measured attribute: half-life (h)

[[record]]
compound = "O=C(NCCN1CCCC1)c1cc(-c2ccc(CN3CCOCC3)cc2)nc2ccc(F)cc12 [M5717]"
recorded_value = 140


----------
# Procedure summary: SAD: M5717 whole-blood pharmacokinetics
# Assay type: in vivo, human
# Details: human, whole blood, po, 2100 mg, AUC0–144h, SAD 2100 mg oral; N=1
Measured attribute: AUC(0-t) (ng·h/mL)

[[record]]
compound = "O=C(NCCN1CCCC1)c1cc(-c2ccc(CN3CCOCC3)cc2)nc2ccc(F)cc12 [M5717]"
recorded_value = 27200


----------
# Procedure summary: SAD: M5717 whole-blood pharmacokinetics
# Assay type: in vivo, human
# Details: human, whole blood, po, 100 mg
Measured attribute: AUC(0-inf) (ng·h/mL)

[[record]]
compound_structure = "O=C(NCCN1CCCC1)c1cc(-c2ccc(CN3CCOCC3)cc2)nc2ccc(F)cc12"
quantity_unit = "ng·h/mL"
recorded_value = 1710


----------
# Procedure summary: SAD: M5717 whole-blood pharmacokinetics
# Type: in vivo, human
# Details: human, whole blood, po, 600 mg
Measured attribute: Vd/F (L)

[[record]]
molecule = "O=C(NCCN1CCCC1)c1cc(-c2ccc(CN3CCOCC3)cc2)nc2ccc(F)cc12 [M5717]"
recorded_value = 7160

